Reference for the values: paper PMC12089418

target: UniProt A0A2K5UVB8
Sequence (A0A2K5UVB8 1-517): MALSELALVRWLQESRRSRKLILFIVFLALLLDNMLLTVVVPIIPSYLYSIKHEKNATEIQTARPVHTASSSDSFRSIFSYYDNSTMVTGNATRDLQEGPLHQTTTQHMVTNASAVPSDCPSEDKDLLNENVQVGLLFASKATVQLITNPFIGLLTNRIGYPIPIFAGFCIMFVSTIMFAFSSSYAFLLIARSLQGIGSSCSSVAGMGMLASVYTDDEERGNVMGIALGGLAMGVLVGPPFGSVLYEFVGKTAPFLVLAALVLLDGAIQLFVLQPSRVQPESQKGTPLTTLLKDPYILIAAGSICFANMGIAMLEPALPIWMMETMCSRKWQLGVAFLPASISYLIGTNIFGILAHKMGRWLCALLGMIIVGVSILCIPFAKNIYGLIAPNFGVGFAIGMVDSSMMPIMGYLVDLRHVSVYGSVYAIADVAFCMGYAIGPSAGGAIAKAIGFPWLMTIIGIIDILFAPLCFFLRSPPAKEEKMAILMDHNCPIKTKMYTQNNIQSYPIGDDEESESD
measurement.type: Ki (nM)

[[record]]
smi = "COc1cc2c(cc1OC)[C@H]1CN(C)[C@H](CC(C)(C)C)CN1CC2"
measured = 18.3


###

target: VMAT2 (Homo sapiens, UniProt Q05940)
Sequence (Q05940 whole entry): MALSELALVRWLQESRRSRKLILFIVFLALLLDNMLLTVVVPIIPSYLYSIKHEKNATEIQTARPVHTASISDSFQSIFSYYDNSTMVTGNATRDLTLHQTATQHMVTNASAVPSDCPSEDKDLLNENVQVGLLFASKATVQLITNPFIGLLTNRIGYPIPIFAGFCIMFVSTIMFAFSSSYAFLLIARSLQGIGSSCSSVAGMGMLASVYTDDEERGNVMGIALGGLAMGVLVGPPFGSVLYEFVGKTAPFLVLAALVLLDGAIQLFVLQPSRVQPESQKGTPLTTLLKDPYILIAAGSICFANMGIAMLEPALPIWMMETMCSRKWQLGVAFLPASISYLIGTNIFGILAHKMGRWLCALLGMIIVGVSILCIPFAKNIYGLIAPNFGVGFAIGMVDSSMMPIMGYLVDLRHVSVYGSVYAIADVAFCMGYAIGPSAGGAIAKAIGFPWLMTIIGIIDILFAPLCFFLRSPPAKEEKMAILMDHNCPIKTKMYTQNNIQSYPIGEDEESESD
measurement.type: Ki (nM)

[[record]]
smi = "COc1cc2c(cc1OC)[C@H]1CN(C)[C@H](CC(C)(C)C)CN1CC2"
measurement_target = "VMAT2 (Homo sapiens, UniProt Q05940)"
measurement_type = "Ki"
measured = 27.7


###

assay: Plasma protein binding by equilibrium dialysis, cynomolgus monkey plasma; format: in vitro ADME, cynomolgus monkeys; conditions: both sexes, pooled plasma, read-out: fraction unbound in plasma (fu_p)
Items are presented alongside their recorded fraction unbound.
measurement.type: fraction unbound

[[record]]
compound = "COc1cc2c(cc1OC)C1CC(O)C(CC(C)C)CN1CC2 (stereo not drawn) [NBI-98782, (+)-α-dHTBZ (dihydrotetrabenazine)]"
measurement_type = "fraction unbound"
measured = 0.4

[[record]]
compound = "COc1cc2c(cc1OC)[C@H]1CN(C)[C@H](CC(C)(C)C)CN1CC2"
measurement_type = "fraction unbound"
measured = 0.59

